Tested on: MCF-7 cell line (human mammary adenocarcinoma)
Assay: anti-tumour effect in vitro, growth of MCF-7 cell line (bioluminescence assay, intracellular ATP)
Assay type: cell-based
Settings: read-out: Antitumour effect against MCF-7 cell line (IC50 = concentration of compound where 50% inhibition of cell growth could be seen)
recordedEndpoint: IC50

Provide IC50 value for the following compound: Oc1ccc([C@@]2(c3ccccc3)OCCC[C@@H]2c2ccccc2)cc1 (relative stereo) 1 to 5 µM

Query IC50 for CN(C)CCOc1ccc([C@@]2(c3ccccc3)OCC[C@@H]2c2ccccc2)cc1 (relative stereo) 5 to 10 µM

Answer with the recorded IC50 of "CCN(CC)CCOc1ccc(/C(=C(/CCCl)c2ccccc2)c2ccccc2)cc1" only. 1 to 5 µM

Annotate the compound "CN(C)CCOc1ccc(/C(=C(/CCF)c2ccccc2)c2ccccc2)cc1" with its measured IC50. 5 to 10 µM

Answer with the recorded IC50 for the compound listed here: "CN(C)CCOc1ccc(/C(=C(/CCCl)c2ccccc2)c2ccccc2)cc1" 1 to 5 µM

State its IC50: "CN(C)CCOc1ccc(/C(=C(/CCO)c2ccccc2)c2ccccc2)cc1" 1 to 5 µM

Annotate the compound OCCC/C(=C(/c1ccccc1)c1ccc(O)cc1)c1ccccc1 [6, (E)-isomer] with its measured IC50. 5 to 10 µM

Indicate the recorded IC50 value for this compound: ClCC[C@@H](c1ccccc1)[C@H](c1ccccc1)c1ccc(OCCN2CCCC2)cc1 (relative stereo) 1 to 5 µM

----------
System: estradiol induced weight increase in immature mouse uterus
Experiment: antiestrogenic effect, inhibition of oestrogen-induced uterus weight increase in immature mice
Assay type: in vivo
Conditions: with estradiol 0.05 mg/kg
Provide the recorded reduction in the weights of mice uterus, with estradiol for the entries that follow.
Just the number in %, nothing appended.

State reduction in the weights of mice uterus, with estradiol (estradiol induced weight increase in immature mouse uterus) of Oc1ccc([C@@H](c2ccccc2)[C@@H](CCCl)c2ccccc2)cc1 (relative stereo) [Compound 14] . 20

Check estradiol induced weight increase in immature mouse uterus data and give reduction in the weights of mice uterus, with estradiol for CN(C)CCOc1ccc(/C(=C(/CCBr)c2ccccc2)c2ccccc2)cc1 [Compound 13] . 25

Quote reduction in the weights of mice uterus, with estradiol with test system estradiol induced weight increase in immature mouse uterus for CN(C)CCOc1ccc(/C(=C(/CCO)c2ccccc2)c2ccccc2)cc1 [Compound 4] 21

Enter recorded reduction in the weights of mice uterus, with estradiol with estradiol induced weight increase in immature mouse uterus for Oc1ccc(/C(=C(/CCCl)c2ccccc2)c2ccccc2)cc1 [Compound 15] here. 25

Please tell me the measured reduction in the weights of mice uterus, with estradiol for CN(C)CCOc1ccc(/C(=C(/CCCl)c2ccccc2)c2ccccc2)cc1 [Compound 7] ; system: estradiol induced weight increase in immature mouse uterus. 27

State recorded reduction in the weights of mice uterus, with estradiol with estradiol induced weight increase in immature mouse uterus, entry OCC/C(=C(\c1ccccc1)c1ccc(O)cc1)c1ccccc1 [Compound 11] , no comment. 31

----------
Assignment: determine reported increase in the weights of mice uterus, given alone for the given compounds.
System: immature mouse uterus
Test: oestrogenic effect, uterus weight of immature mice
Format: in vivo
Details: given alone
Number in %, nothing else.

Tell us which increase in the weights of mice uterus, given alone value is on record for "CN(C)CCOc1ccc(/C(=C(\CCCl)c2ccccc2)c2ccccc2)cc1" 20

Give reported increase in the weights of mice uterus, given alone value for Oc1ccc([C@@H](c2ccccc2)[C@@H](CCCl)c2ccccc2)cc1 (relative stereo) 50

Determine from records and report increase in the weights of mice uterus, given alone for "CN(C)CCOc1ccc(/C(=C(/CCBr)c2ccccc2)c2ccccc2)cc1" 50

Entry "Oc1ccc(/C(=C(/CCCl)c2ccccc2)c2ccccc2)cc1" needs its increase in the weights of mice uterus, given alone filled in; supply it. 20

Provide only the value of recorded increase in the weights of mice uterus, given alone for Oc1ccc(C2CCOC2(c2ccccc2)c2ccc(O)cc2)cc1 (centres unmarked) 50

----------
Test system: immature mouse uterus
Assay: progestanic effect, uterus weight of immature mice (alone or with medroxyprogesterone acetate)
Assay type: in vivo
Settings: with medroxyprogesterone 0.06 mg/kg
recordedEndpoint: effect with medroxyprogesterone (in words)

• CN(C)CCOc1ccc(/C(=C(/CCBr)c2ccccc2)c2ccccc2)cc1 = weak
• CN(C)CCOc1ccc(/C(=C(/CCCl)c2ccccc2)c2ccccc2)cc1 = weak
• CN(C)CCOc1ccc(/C(=C(/CCO)c2ccccc2)c2ccccc2)cc1 = weak
• Oc1ccc([C@@]2(c3ccccc3)OCCC[C@@H]2c2ccccc2)cc1 (relative stereo) = no inhibition

Moving on to another compound below.
Provide effect with medroxyprogesterone (in words) value for the following compound: "OCC/C(=C(\c1ccccc1)c1ccc(O)cc1)c1ccccc1" no inhibition
